System: A549
assay: Inhibition of cancer cell proliferation (MTT)
Assay type: cell-based, human
applied_conditions: Homo sapiens, A549, 72 h
Catalogue of GI50 readings, one per entry.

| smiles_data | GI50 [nM] |
| --- | --- |
| CN1CCN(c2cc(-c3nc(-c4ccnc(N)c4F)ccc3O)nc(N)n2)CC1 | 20 |
| Nc1nc(-c2nc(-c3ccnc(N)c3F)ccc2O)cc(N2CCOCC2)n1 | 10 |
| Cc1nc(N)nc(-c2nc(-c3ccnc(N)c3F)ccc2O)c1C | 120 |
| CC(C)N1CCC(c2cc(-c3nc(-c4ccnc(N)c4F)ccc3O)nc(N)n2)CC1 | 20 |
| Nc1nc(-c2nc(-c3ccnc(N)c3F)ccc2O)cc(C2CCOCC2)n1 | 80 |

* * *

Catalogue of concentration at 4 h readings, one per entry.
assay: Blood brain barrier permeation
Assay type: in vivo, ICR mice
applied_conditions: male, ICR, mouse, plasma, po, 30 mg/kg, oral once 30 mg/kg, 4 hrs, read-out: Concentration in the plasma

| compound | concentration at 4 h (ng/mL) |
| --- | --- |
| Nc1nccc(-c2ccc(O)c(-c3ccnc(N)n3)n2)n1 [Example 61] | 129 |
| Nc1nccc(-c2nc(-c3ccnc(N)c3F)ccc2O)n1 [Example 8] | 29.4 |
| Nc1cc(-c2ccc(O)c(-c3ccnc(N)n3)n2)ccn1 [Example 10] | 8.3 |

* * *

measurement_target: CDK2/cyclinE (Homo sapiens)
assay: Inhibition of CDK enzyme activity (ADP-Glo kinase assay)
applied_conditions: 10 uM ATP, histone H1 substrate
pIC50: −log10 of the molar value.
readout_kind: pIC50

| compound | test_value |
| --- | --- |
| Cc1cc(-c2nc(-c3ccnc(N)c3F)ccc2O)nc(N)n1 [Example 24] | 9.05 |
| Nc1nccc(-c2nc(-c3ccnc(N)c3F)ccc2O)n1 [Example 8] | 8.68 |
| CN(C)c1cc(-c2nc(-c3ccnc(N)c3F)ccc2O)nc(N)n1 | 7.84 |
| Nc1nccc(-c2ccc(O)c(-c3ccnc(N)n3)n2)n1 [Example 1] | 8.82 |
| Nc1nccc(-c2nc(-c3cccc(N)c3F)ccc2O)n1 | 7.97 |
| Nc1nccc(-c2nc(-c3ccnc(N)c3O)ccc2O)n1 | 8.35 |
| Nc1nc(-c2nc(-c3ccnc(N)c3F)ccc2O)cc(N2CCOCC2)n1 | 8.35 |
| CN1CCC(c2cc(-c3nc(-c4ccnc(N)c4F)ccc3O)nc(N)n2)CC1 | 8.66 |
| Nc1nccc(-c2nc(-c3ccc(O)cc3)ccc2O)n1 | 8.19 |
| Nc1cc(-c2ccc(O)c(-c3ccnc(N)n3)n2)ccn1 | 8.59 |

* * *

measurement_target: CDK4/cyclinD1 (Homo sapiens, UniProt P11802)
Sequence (P11802 whole entry): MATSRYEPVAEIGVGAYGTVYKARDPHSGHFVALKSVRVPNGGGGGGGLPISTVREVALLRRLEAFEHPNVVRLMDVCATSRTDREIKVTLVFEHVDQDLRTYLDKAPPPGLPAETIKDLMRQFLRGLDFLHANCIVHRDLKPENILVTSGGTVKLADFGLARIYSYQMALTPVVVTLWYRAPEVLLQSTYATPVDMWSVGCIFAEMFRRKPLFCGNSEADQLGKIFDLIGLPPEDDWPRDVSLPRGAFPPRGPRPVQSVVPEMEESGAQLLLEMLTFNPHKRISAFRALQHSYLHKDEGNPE
Sequence (P24385 whole entry partner): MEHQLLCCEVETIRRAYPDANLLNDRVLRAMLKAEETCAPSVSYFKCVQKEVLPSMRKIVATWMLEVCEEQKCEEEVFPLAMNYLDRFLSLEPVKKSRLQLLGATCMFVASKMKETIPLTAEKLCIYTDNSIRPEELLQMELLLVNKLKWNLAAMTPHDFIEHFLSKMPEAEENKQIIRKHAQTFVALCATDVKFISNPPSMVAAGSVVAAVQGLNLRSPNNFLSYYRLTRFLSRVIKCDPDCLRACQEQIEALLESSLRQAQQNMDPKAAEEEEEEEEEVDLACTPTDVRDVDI
assay: Inhibition of CDK enzyme activity (ADP-Glo kinase assay)
applied_conditions: 10 uM ATP, Rb protein substrate; read-out: IC50 CDK4/cyclinD
pIC50: −log10 of the molar value.
Could you label it y if measured pIC50 is 7 or higher, and n otherwise?

| smiles_data | measurement_target | qualitative_label |
| --- | --- | --- |
| Nc1nccc(-c2nc(-c3cccc(N)c3F)ccc2O)n1 | CDK4/cyclinD1 (Homo sapiens, UniProt P11802) | n |
| Nc1nccc(-c2nc(-c3ccnc(N)c3O)ccc2O)n1 | CDK4/cyclinD1 (Homo sapiens, UniProt P11802) | n |
| Nc1nccc(-c2nc(-c3ccc(O)cc3F)ccc2O)n1 | CDK4/cyclinD1 (Homo sapiens, UniProt P11802) | n |
| Nc1cc(-c2ccc(O)c(-c3ccnc(N)n3)n2)ccn1 | CDK4/cyclinD1 (Homo sapiens, UniProt P11802) | n |
| Nc1nccc(-c2nc(-c3ccncc3)ccc2O)n1 | CDK4/cyclinD1 (Homo sapiens, UniProt P11802) | n |
| Nc1nc(-c2nc(-c3ccnc(N)c3F)ccc2O)cc(C2CCNCC2)n1 | CDK4/cyclinD1 (Homo sapiens, UniProt P11802) | y |
| CC(C)c1cc(-c2nc(-c3ccnc(N)c3F)ccc2O)nc(N)n1 | CDK4/cyclinD1 (Homo sapiens, UniProt P11802) | y |
